Parameter Kd: see the listing below.
Molecular target: SARS-CoV-2 spike RBD (Wuhan-Hu-1) (Severe acute respiratory syndrome …, UniProt P0DTC2)
Experiment: SPR
Numbers only here, please. The scale is nM.

binder="COVIC-61 (antibody) QVQLQESGGGLVQAGGSLRLSCAASGRTFSEYAMGWFRQAPGKEREFVATISWSGGSTYYTDSVKGRFTISRDNAKNTVYLQMNSLKPDDTAVYYCAAAGLGTVVSEWDYDYDYWGQGTQVTVSSGGSGGSQVQLQESGGGLVQAGGSLRLSCAASGRTFSEYAMGWFRQAPGKEREFVATISWSGGSTYYTDSVKGRFTISRDNAKNTVYLQMNSLKPDDTAVYYCAAAGLGTVVSEWDYDYDYWGQGTQVTVSSGGGGSGGGGSKKKPLDGEYFTLQIRGRERFEMFRELNEALELKDAQAGKEPG" measurement_units=nM endpoint_result=195
binder="COVIC-185 (antibody, V domains shown) VH: QVQLVQSGAEVKKPGASVRVSCKASGYTFTGYYMHWVRQAPGQGLEWMGWINPISDGTNYAQKFQGWVTMTRDTSISTVYMELSRLRSDDTAVYYCARGGSRCSGGNCYGWAYDAFDIWGQGTMITVSS VL: QSALTQPASVSGSPGQSITISCTGTSSDVGGYNFVSWYQQHPGKAPKLMIYDVSKRPSGVSNRFSGSKSGNTASLTISGLQAEDEADCYCSSYTSSSTFVFGTGTKVTVL" measurement_units=nM endpoint_result=12.3
binder="COVIC-260 (antibody, V domains shown) VH: QVQLQESGPGLVKPSETLSLTCSVSGDSISSSDYSWGWIRQPPGKGLEWIGTIYYIKNTYYNPSLRSRVTLSVDTSKNLFSLKLSSVTAADTAVYYCARERPPFDVVVVPAARPYNWFDPWGLGTLVIVSS VL: QSVLMQPPSVSGAPGQRVTISCTGSSSNIGAGYDVHWYQQLPGTAPKLLIYGNNNRPSGVPDRFSGSKSGTSASLAITGLQADDEADYYCQSYDSSLSGSKVFGGGTKLTVLG" measurement_units=nM endpoint_result=0.0696

For the binder COVIC-333 (antibody, V domains shown) VH: QVQLVQSGAEVKKPGSSVRVSCKASGGTFISYTFNWVRQAPGQGLEWMGRIIPIFGIVNYAQKFQGRVTIAADKSTSTAYMELSSLRSEDTAMYYCATATVDYDSGEEQSSFDPWGQGTLVTVSS VL: EIVLTQSPGTLSLSPGERATLSCRASQSVSSSYLAWYQQKAGQTPRLLIYAASSRATGVPDRFSGSGSGTDFTLTISRLEAEDFAVYYCQQSWTFGQGTKVEIK , give its reported Kd.
0.0111

For the binder COVIC-306 (antibody, V domains shown) VH: QVQLVESGGGLVKPGGSLRLSCAASGFTVGSNYMSWVRQAPGKGLEWVSVIYSGGSTYYADSVKGRFTISRDNSKNTLYLQMNSLRAEDTAVYYCARGSSGAWYFDLWGRGTLVTVSS VL: EIVMTQSPSSLSASVGDSVTITCQASQDISNYLNWYQQKPGKAPKLLIYDASNLETGVPSRFSGGGSGTDFTLTITSLQPEDIATYYCQQYDNFPPTFGPGTKVDIKR , give its reported Kd.
26.3

For the binder COVIC-142 (antibody, V domains shown) VH: EVQLVESGGGLIQPGGSLRLSCAASGFTVSSNYMSWVRQAPGKGLEWVSVIYSGGSTYYADSVKGRFTISRDNSKNTLYLQMNSLRAEDTAVYYCARHITMVRGVIIYLKEWGQGTLVTVSS VL: DIVMTQSPSSLSASVGDRVTITCQASQDISNYLNWYQQKPGKAPKLLIYDASNLETGVPSRFSGSGSGTDFTFTISSLQPEDIATYYCQQCDNLPITFGQGTRLEIK , give its reported Kd.
16.5

For the binder COVIC-159 (antibody, V domains shown) VH: EVQLVESGGGLIQPGGSLRLSCAASGFTVSSNYMNWVRQAPGKGLEWVSVIYSGGSTYYADSVKGRFTISRDNSKNTLFLQMNSLRAEDSAVYYCARDLGPYGVDVWGQGTTVTVSS VL: DIQLTQSPSFLSASVGDRVTITCWASQGISSYLAWYQQKPGKAPKLLIYAASTLQSGVPSRFSGSGSGTEFTLTISSLQPEDFATYYCQELNSYPLTFGQGTRLEIKR , give its reported Kd.
24.9

For the binder COVIC-250 (antibody, V domains shown) VH: QVQLQQSGPGLVKPSETLALTCTVSGGSTSSYYWSWIRQPPGKGLEWIGSIYYSGSTDYNPSLKSRVTISLDTSKTQFSLKLSSVTAADTAVYYCARVDTSGWYTGDVFDYWGQGTLVTVSS VL: DIQMTQPPSSLSASVGDRVTITCRASQSLSSYLNWYQQKPGKAPKLLIYAVFSLQSGVPSRFSGSGSGTDFTLTISSLQPEDFATYYCQQSYSTPLTFGGGTKVEIK , give its reported Kd.
17.7

For the binder COVIC-386 (antibody, V domains shown) VH: EVQLVESGGGLVQPGGSLRLSCKASGYSFRHQAMTWVRQAPGKGLEWIGVIASNADTYYASWAKGRFTISRDNSKNTLYLQMNSLRAEDTAVYYCARHPGSAGYGYTYYYAMDPWGQGTLVTVSS VL: DIQMTQSPSSLSASVGDRVTITCQASERVFYGIDWYQQKPGKAPKLLIYGASALWHGVPSRFSGSGSGTDYTLTISSLQPEDFATYYCQQGYMVPIGFGGGTKVEIK , give its reported Kd.
0.177

For the binder COVIC-332 (antibody, V domains shown) VH: QVQLVQSGAEVKKPGSSLKVSCKASGGTFNNFAISWVRQAPGQGPEWMGRINPILSAAKYAQKFQGRLTITADKSTTTAYMELSSLRSEDTAVYYCAPTGTGESWWFDPWGQGTLVTVSS VL: QSVLTQPPSASGTPGQRVTISCSGSSSNIGTNYVYWYQQLPGTAPKVLIYGNNQRPSGVPDRFSGSKSGSSASLAISGLRSEDEADYYCAAWDDSLSGPVFGGGTKLTVL , give its reported Kd.
0.111
